experimental_target: T1, P6-AA-1HGe-R
T1 chain: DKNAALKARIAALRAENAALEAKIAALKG
assay: two-hybrid library CCmax;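 note: natural log of median RNA to DNA barcode read ratio; higher means stronger binding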
measurement_context: mean of both orientations
measurement_kind: interaction score

>>> print(df.to_string())
                                     binder   measurement_kind   val
0  DENAALEAAIAALAAKNAALKAEIAALEG [P5-AA-1HGe-A]  interaction score  2.03
1  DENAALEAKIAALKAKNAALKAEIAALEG [4H1401-AA]  interaction score  1.53
2     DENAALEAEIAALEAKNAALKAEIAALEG [O5-AA]  interaction score  2.38
3  DENAALEASIAALSAKNAALKAEIAALEG [P5-AA-1HGe-S]  interaction score  2.01
4  DENAALEAYIAALYAKNAALKAEIAALEG [P5-AA-1HGe-Y]  interaction score  1.82
